The values you see were collected from PubChem BioAssay (NCI).

- Tested on: A498 renal
- methodNotes: NCI tumour cell line growth inhibition, 48 h; in the data active = GI50 below about 0.43 µM; inactive = the rest
Outcomes: true (1) for active, false (0) for inactive

| compound | category |
| --- | --- |
| O=C(O)c1ccc2c3c(ncnc13)-c1ccccc1C2=O | false (0) |
| COc1ccc2c3c(c4ccccc4cc13)C(=O)N(CCN(C)CCN)C2=O | true (1) |
| Cc1ccc(C(=O)/C(=C\c2ccc([N+](=O)[O-])cc2)S(=O)Cc2ccc(F)cc2)cc1 (centres undefined) | false (0) |
| CN[C@@H]1C[C@H]2O[C@@](C)([C@@H]1OC)n1c3ccccc3c3c4c(c5c6ccccc6n2c5c31)C(=O)N[C@H]4O | true (1) |
| CC1(C)N=C(N)N=C(N)N1c1ccc(CCc2ccc(Cl)cc2S(=O)(=O)F)c(Cl)c1 | false (0) |
| O=C1C(Cl)=C(Nc2cccc(O)c2)C(=O)N1Cc1ccc(Cl)cc1 | false (0) |
| C[C@@H](NC(=O)[C@@H](CC(=O)N1CCC(N2CCCCC2)CC1)N1C(=O)[C@@H](N2C(=O)OC[C@@H]2c2ccccc2)[C@H]1/C=C/c1cccc(Cl)c1)c1ccccc1 | false (0) |
| COc1ccc2c(c1)c1nc3cc(C)c(C)cc3nc1n2CCN(C)C | false (0) |
| COc1cc2c(cc1OC)C(CC1(O)CCCCC1)N(S(=O)(=O)c1ccc(C)cc1)CC2 (centres undefined) | false (0) |
